# experimentalSystem: GHS-R (Homo sapiens)
# Sequence (Q92847 whole entry): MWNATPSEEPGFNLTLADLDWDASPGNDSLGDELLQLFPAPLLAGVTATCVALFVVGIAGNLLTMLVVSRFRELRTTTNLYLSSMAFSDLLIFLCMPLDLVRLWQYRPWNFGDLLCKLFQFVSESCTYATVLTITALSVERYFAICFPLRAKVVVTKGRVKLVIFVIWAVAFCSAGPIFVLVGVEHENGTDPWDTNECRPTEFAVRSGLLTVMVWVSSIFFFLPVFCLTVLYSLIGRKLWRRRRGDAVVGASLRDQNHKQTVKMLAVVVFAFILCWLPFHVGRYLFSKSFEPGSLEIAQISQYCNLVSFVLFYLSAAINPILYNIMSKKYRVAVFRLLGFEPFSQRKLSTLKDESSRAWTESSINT
outcomeMeasure: Ki

Given the compound CCN(CC)CCCS(=O)(=O)N[C@H](CCc1ccccc1)c1nc(-c2cncn2C)n[nH]1 , what is its reported Ki?
< 100 nM
